Data origin: patent US10208089B2

# Lookup of reported pIC50 keyed by entry
- Target or system: C5 (Homo sapiens, UniProt P01031)
- Sequence (P01031 19-1676): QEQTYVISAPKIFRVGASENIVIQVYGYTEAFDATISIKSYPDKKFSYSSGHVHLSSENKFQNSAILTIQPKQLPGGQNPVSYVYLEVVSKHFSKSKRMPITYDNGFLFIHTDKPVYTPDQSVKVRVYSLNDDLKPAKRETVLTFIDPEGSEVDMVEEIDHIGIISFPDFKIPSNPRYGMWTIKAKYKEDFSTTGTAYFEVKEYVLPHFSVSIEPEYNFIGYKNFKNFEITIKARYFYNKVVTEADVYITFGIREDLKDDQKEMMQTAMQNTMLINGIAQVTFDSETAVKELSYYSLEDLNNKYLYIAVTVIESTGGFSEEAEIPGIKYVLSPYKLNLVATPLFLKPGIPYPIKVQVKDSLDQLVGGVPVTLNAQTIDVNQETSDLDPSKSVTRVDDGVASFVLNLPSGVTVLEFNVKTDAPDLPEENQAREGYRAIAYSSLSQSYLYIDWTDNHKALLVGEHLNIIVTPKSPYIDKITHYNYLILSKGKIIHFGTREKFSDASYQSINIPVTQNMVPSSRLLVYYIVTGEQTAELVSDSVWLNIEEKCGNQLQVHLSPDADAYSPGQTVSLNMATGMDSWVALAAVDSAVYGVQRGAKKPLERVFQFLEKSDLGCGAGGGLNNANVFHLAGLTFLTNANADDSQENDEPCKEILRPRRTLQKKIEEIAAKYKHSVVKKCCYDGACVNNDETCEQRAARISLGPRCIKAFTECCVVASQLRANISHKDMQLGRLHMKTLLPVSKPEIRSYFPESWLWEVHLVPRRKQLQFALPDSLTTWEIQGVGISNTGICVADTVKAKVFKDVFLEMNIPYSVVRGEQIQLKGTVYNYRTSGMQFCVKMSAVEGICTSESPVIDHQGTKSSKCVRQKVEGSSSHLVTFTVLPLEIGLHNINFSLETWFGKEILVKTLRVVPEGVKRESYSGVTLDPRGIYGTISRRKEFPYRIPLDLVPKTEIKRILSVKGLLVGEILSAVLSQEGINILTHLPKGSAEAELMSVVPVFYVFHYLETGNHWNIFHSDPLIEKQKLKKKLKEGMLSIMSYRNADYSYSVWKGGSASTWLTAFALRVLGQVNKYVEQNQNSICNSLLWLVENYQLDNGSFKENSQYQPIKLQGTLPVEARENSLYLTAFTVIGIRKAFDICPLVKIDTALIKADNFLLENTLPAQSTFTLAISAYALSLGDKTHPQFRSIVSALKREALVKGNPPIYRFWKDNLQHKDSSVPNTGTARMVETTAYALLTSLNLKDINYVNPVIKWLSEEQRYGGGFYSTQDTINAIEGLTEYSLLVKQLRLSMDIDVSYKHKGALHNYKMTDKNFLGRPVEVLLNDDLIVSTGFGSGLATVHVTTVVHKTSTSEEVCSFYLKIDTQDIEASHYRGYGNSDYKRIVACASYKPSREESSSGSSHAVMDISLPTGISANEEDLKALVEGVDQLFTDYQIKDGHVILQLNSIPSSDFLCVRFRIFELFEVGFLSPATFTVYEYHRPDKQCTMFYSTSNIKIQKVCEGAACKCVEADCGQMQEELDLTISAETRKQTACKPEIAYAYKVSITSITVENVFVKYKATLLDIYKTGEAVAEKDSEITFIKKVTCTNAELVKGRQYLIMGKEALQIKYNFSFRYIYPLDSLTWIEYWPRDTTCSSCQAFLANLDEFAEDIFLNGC
- Test description: Human hemolysis assay (RBC lysis assay using complete human sera)
- Type: cell-based
- Design: with complete human sera (Complement Technology, Tyler Tex.) and polypeptides; tissue Complement Technology, Tyler Tex; host or cells: complete human serum
- Recorded conditions: inhibition of lysis of antibody-sensitized sheep erythrocytes, complete human sera
pIC50: −log10 of the molar value. Starred links: 1 amine or outer side, 2 acyl side, 3 side chain; linkers in the order of their positions; H or OH if unused. Positions of bridges follow the written chain, without caps; N, C: chain ends. Non-standard residues stand in square brackets, D forms with d. Residues, ends and D or L forms follow the SMILES beside them. Trp(7-aza) = N[C@@H](Cc1c[nH]c2ncccc12)C(=O)O; mXylylene = c1cc(C[*:1])cc(C[*:2])c1; hPhe = N[C@@H](CCc1ccccc1)C(=O)O; Phg = N[C@H](C(=O)O)c1ccccc1; Tle = CC(C)(C)[C@H](N)C(=O)O; NMeS = CN[C@@H](CO)C(=O)O; Nva = CCC[C@H](N)C(=O)O
Measurement kind: pIC50

Compound	Result
CCC[C@H](NC(=O)[C@@H]1CSCc2cccc(c2)CSC[C@H](NC(=O)[C@H](CCC)NC(C)=O)C(=O)N[C@@H](c2ccccc2)C(=O)N[C@@H]([C@@H](C)O)C(=O)N[C@@H](Cc2c[nH]c3ncccc23)C(=O)N[C@@H](CCC(=O)O)C(=O)N[C@@H](Cc2ccc(O)cc2)C(=O)N(C)[C@@H](CO)C(=O)N[C@@H](Cc2c[nH]cn2)C(=O)NCC(=O)N1)C(N)=O [Compound R3101] (Ac-[Nva]C[Phg]T[Trp(7-aza)]EY[NMeS]HGC[Nva]-NH2; linker 2-11 via mXylylene)	< 4.00
CSCC[C@H](N)C(=O)N[C@H]1CSCc2cccc(c2)CSC[C@@H](C(=O)N[C@@H](CC(=O)O)C(=O)N[C@H](C(=O)N[C@@H](Cc2ccc(O)cc2)C(N)=O)C(C)C)NC(=O)[C@H](Cc2ccccc2)NC(=O)[C@H](CCCNC(=N)N)NC(=O)[C@H](CCC(=O)O)NC(=O)[C@H](C(C)C)NC1=O [Compound R3045, [mXylyl(2,7)]M-C-V-E-R-F-C-D-V-Y-NH2] (H-MCVERFCDVY-NH2; linker 2-7 via mXylylene)	< 4.00
CCC[C@H](NC(C)=O)C(=O)N[C@@H](CS)C(=O)N[C@@H](Cc1ccc(O)cc1)C(=O)N[C@@H](CC(N)=O)C(=O)N[C@@H](CC(N)=O)C(=O)N[C@H](C(=O)N[C@@H](CCC(=O)O)C(=O)N[C@@H](Cc1c[nH]c2ncccc12)C(=O)N[C@@H](CCC(=O)O)C(=O)N[C@@H](CS)C(=O)N1CCC[C@H]1C(=O)N[C@H](C(=O)N[C@H](C(N)=O)C(C)(C)C)c1ccccc1)C(C)(C)C [Compound R3126] (Ac-[Nva]CYNN[Tle]E[Trp(7-aza)]ECP[Phg][Tle]-NH2)	< 5.52
CCC[C@H](NC(=O)[C@@H]1CSCc2cccc(c2)CSC[C@H](NC(=O)[C@H](CCC)NC(C)=O)C(=O)N[C@@H](c2ccccc2)C(=O)N[C@@H]([C@@H](C)O)C(=O)N[C@@H](Cc2c[nH]c3ncccc23)C(=O)N[C@@H](CCC(=O)O)C(=O)N[C@@H](CCc2ccccc2)C(=O)N(C)[C@@H](CO)C(=O)N[C@@H](C)C(=O)N1)C(N)=O [Compound R3095] (Ac-[Nva]C[Phg]T[Trp(7-aza)]E[hPhe][NMeS]AC[Nva]-NH2; linker 2-10 via mXylylene)	< 4.30
